- measured target: delF508-CFTR (Homo sapiens, UniProt P13569, DEL508-508)
- Construct: endogenous in cells; host or cells: CFBE41o- human CF bronchial epithelial cells (delF508 homozygous)
- Sequence (P13569 with tags, fused parts or gaps DEL508-508): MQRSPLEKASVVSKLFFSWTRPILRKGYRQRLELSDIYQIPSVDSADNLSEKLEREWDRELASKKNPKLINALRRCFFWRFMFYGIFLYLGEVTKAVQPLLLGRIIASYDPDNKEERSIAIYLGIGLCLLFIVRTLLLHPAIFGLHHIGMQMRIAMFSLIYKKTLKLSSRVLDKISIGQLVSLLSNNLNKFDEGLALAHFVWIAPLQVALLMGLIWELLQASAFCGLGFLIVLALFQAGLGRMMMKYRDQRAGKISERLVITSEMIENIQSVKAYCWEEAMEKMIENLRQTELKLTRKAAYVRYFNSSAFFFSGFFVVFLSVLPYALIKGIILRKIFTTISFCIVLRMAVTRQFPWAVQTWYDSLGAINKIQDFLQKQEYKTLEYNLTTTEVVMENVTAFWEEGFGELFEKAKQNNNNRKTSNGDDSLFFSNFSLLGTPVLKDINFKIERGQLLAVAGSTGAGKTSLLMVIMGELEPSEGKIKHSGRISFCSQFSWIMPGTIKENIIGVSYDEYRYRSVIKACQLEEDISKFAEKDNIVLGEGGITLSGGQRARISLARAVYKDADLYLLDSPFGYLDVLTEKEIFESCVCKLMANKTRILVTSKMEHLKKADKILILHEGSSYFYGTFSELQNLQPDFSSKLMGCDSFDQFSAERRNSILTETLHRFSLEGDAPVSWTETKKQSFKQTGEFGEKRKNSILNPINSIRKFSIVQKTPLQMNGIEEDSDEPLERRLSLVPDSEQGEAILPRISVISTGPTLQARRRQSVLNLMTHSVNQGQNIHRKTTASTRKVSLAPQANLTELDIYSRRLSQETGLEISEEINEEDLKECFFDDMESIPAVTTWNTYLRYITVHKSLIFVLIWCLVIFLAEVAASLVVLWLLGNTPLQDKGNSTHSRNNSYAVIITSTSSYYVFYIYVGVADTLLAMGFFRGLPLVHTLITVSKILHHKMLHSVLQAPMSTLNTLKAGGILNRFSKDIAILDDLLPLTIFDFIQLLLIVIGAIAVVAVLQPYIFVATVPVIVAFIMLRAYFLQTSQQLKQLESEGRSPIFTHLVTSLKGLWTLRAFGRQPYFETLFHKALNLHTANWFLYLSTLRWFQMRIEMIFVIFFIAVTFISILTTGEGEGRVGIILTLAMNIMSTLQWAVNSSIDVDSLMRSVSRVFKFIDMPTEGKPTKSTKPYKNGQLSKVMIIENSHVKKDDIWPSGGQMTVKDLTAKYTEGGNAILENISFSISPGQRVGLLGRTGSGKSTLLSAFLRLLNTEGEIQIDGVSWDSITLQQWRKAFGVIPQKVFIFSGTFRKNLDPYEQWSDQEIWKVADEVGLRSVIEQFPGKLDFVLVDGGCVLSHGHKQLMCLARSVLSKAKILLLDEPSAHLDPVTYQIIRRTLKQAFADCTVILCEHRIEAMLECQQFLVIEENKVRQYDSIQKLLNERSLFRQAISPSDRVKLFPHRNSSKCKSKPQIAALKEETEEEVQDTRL
- protocol notes: SPQ halide-sensitive fluorescence dye assay for rescue of halide efflux (8-point concentration-response)
- Type: cell-based
- condition parameters: CFBE41o- cells, 48 h; read-out: SPQ EC50
Criterion: EC50 strictly under 10 µM. Met: Satisfied. Not met: Not satisfied.

For orientation, consider the following solved cases.
C=CCN1N=C(C)Cn2c1nc1c2c(=O)n(CC(C)C)c(=O)n1C [Compound V-7] : Not satisfied
CCOCCn1c(=O)c2c(nc3n(-c4ccc(OC)cc4)c(C)c(C)n23)n(C)c1=O [Compound I-45] : Not satisfied
CCn1c(N2CCN(Cc3ccccc3C)CC2)nc2c1c(=O)[nH]c(=O)n2C [III-3] : Not satisfied
CCCCn1c(=O)c2c(nc3n(CCN4CCOCC4)c(C)c(C)n23)n(C)c1=O [Compound I-51] : Not satisfied

Find out if reported EC50 for C=C(C)CN1N=C(C)Cn2c1nc1c2c(=O)n(C/C=C/C)c(=O)n1C [Compound V-2] is less than 10 µM Not satisfied

Find out if reported EC50 for Cc1ccc(C)c(Cn2c(=O)c3c(nc4[nH]c(C)c(C)n43)n(C)c2=O)c1 [Compound I-11] is less than 10 µM Not satisfied

Find out if reported EC50 for CCCn1c(=O)c2c(nc3n2CC(C)=NN3CCC(C)C)n(C)c1=O [Compound V-10] is less than 10 µM Satisfied

Find out if reported EC50 for CCC(C)n1c(C)c(C)n2c3c(=O)n(CC(=O)OC)c(=O)n(C)c3nc12 (stereo not drawn) [Compound I-49] is less than 10 µM Satisfied

Find out if reported EC50 for COc1ccc(N2CCCn3c2nc2c3c(=O)n(C)c(=O)n2C)cc1 [IV-4] is less than 10 µM Not satisfied
